B1: TPR 5TU (parent)
chain: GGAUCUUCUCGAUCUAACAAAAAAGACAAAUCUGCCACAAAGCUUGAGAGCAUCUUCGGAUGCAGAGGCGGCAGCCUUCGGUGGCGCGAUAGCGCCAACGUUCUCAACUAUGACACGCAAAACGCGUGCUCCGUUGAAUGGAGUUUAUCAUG

variants of: B1; experiment: polymerase ribozyme fitness, log enrichment relative to wild type (log ratio); higher = more active; in vitro selection for triplet polymerase activity
This sample holds only a part of the variants without activity.
Where polymerase ribozyme fitness (log ratio) equals or exceeds -2, the correct label is true; where it does not, the label is false.

Answered examples (6):
- VARIANT DESIGNATION: "G11A C54U G83A A147U"
  LABEL VALUE: "true"
- VARIANT DESIGNATION: "C38U G46A C95A"
  LABEL VALUE: "true"
- VARIANT DESIGNATION: "U56A U127A A138C A142G"
  LABEL VALUE: "false"
- VARIANT DESIGNATION: "G48C U53C C87U U145C"
  LABEL VALUE: "false"
- VARIANT DESIGNATION: "G70C G84U A107U"
  LABEL VALUE: "false"
- VARIANT DESIGNATION: "C10A G48C U82G A97U"
  LABEL VALUE: "false"

Please indicate if the recorded polymerase ribozyme fitness (log ratio) for A17U A26C G62A G86U C99U U134C A137U G140A A147U meets or exceeds -2.
false

Please indicate if the recorded polymerase ribozyme fitness (log ratio) for C8U A106G meets or exceeds -2.
false

Please indicate if the recorded polymerase ribozyme fitness (log ratio) for G25C U61A C87G A138G meets or exceeds -2.
false

Please indicate if the recorded polymerase ribozyme fitness (log ratio) for A30C A41C G67C G83U G88U G141A meets or exceeds -2.
false

Please indicate if the recorded polymerase ribozyme fitness (log ratio) for A12G U45A A52U C93A C118A A120U U145G meets or exceeds -2.
false

Please indicate if the recorded polymerase ribozyme fitness (log ratio) for C14A C99G meets or exceeds -2.
true

Please indicate if the recorded polymerase ribozyme fitness (log ratio) for C14U G59A C85U U134A meets or exceeds -2.
false

Please indicate if the recorded polymerase ribozyme fitness (log ratio) for G84U U134A A142C meets or exceeds -2.
false

Please indicate if the recorded polymerase ribozyme fitness (log ratio) for U13G C35A A52C meets or exceeds -2.
false

Please indicate if the recorded polymerase ribozyme fitness (log ratio) for C85G A98G U144G meets or exceeds -2.
true
